Numbers sourced from PubChem BioAssay.

experiment: SK-BR-3 cell growth inhibitors, pilot screen, 24 h, human (AID 572); details: SK-BR-3 viability, CellTiter-Glo luminescence, at 10 µM, stronger effect = lower value;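 further: compound exposure lasted between 18 and 24 h rather than exactly 24 h; 100% = carrier-treated control wells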
Active and inactive are the calls of the source.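 How the source made its calls: active means viability at or below 10% of carrier control in both of two separate runs; inconclusive means viability at or below 10% in only one of the two runs; inactive means the rest.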
Item-by-item account of viability

molecule	viability
CCN(CC)S(=O)(=O)N1CCC(C(=O)NCC2COc3ccccc3O2)CC1 (stereo unspecified)	94% (inactive)
O=C(NCc1ccco1)c1cnn2c(C(F)(F)F)cc(-c3ccco3)nc12	86.5% (inactive)
CC(=O)c1cc2c(=O)c3cc(C)ccc3oc2nc1C	102% (inactive)
Cc1ccc(NS(=O)(=O)c2cn(C)cn2)cc1	95% (inactive)
O=C(Nc1cccc(C(=O)N2CCOCC2)c1)c1cccnc1	99.5% (inactive)
O=C(CSc1nnc(CNC(=O)c2cccs2)o1)NC1CCCC1	102% (inactive)
